target of assay: human recombinant HDAC6 (Homo sapiens, UniProt Q9UBN7)
Construct: purchased Calbiochem 382180
test description: HDAC6 enzyme activity inhibition assay (in vitro, fluorimetric)
Assay type: biochemical
assay setup: HDAC6 selectivity over HDAC1
Procedure: In order to examine the HDAC6 selectivity of the compounds of formula 1 of the present invention by HDAC1 and HDAC6 enzymatic activity inhibition assays, an experiment was performed using a conventional substance as a control. HDAC enzyme activity was measured using a HDAC Fluorimetric Drug Discovery Kit (BML-AK511, 516, Enzo Life Science). […] Based on the resulting values, each IC50 value was calculated using GraphPad Prism4.0 program.
readout: HDAC6 selectivity (fold)

Answered examples (3):
| molecule | unit of measurement | HDAC6 selectivity (fold) |
| --- | --- | --- |
| C[C@@H]1CN(Cc2ccc3oc(C(=O)NO)cc3c2)C[C@H](C)N1Cc1ccccc1 [Compound 571] | fold | 48 |
| C[C@@H]1CN(Cc2cccc(-n3cccc3)c2)C[C@H](C)N1Cc1ccc(C(=O)NO)cc1 [Compound 256] | fold | 15 |
| C[C@@H]1CN(C(=O)Nc2cccc(Cl)c2)C[C@H](C)N1Cc1ccc(C(=O)NO)cc1 [Compound 104] | fold | 9 |

(A) CCCC(=O)N1[C@H](C)CN(Cc2ccc(C(=O)NO)cc2)C[C@@H]1C [Compound 294]
(B) C[C@@H]1CN(Cc2ccc(C(=O)NO)cc2)C[C@H](C)N1Cc1ccccc1-c1ccoc1 [Compound 328]
Looking at A and B , which one comes out lower in HDAC6 selectivity (fold) terms? Kindly state the label of the option you pick.
A

---

target of assay: human recombinant HDAC6 (Homo sapiens, UniProt Q9UBN7)
Sequence (Q9UBN7 1-1215): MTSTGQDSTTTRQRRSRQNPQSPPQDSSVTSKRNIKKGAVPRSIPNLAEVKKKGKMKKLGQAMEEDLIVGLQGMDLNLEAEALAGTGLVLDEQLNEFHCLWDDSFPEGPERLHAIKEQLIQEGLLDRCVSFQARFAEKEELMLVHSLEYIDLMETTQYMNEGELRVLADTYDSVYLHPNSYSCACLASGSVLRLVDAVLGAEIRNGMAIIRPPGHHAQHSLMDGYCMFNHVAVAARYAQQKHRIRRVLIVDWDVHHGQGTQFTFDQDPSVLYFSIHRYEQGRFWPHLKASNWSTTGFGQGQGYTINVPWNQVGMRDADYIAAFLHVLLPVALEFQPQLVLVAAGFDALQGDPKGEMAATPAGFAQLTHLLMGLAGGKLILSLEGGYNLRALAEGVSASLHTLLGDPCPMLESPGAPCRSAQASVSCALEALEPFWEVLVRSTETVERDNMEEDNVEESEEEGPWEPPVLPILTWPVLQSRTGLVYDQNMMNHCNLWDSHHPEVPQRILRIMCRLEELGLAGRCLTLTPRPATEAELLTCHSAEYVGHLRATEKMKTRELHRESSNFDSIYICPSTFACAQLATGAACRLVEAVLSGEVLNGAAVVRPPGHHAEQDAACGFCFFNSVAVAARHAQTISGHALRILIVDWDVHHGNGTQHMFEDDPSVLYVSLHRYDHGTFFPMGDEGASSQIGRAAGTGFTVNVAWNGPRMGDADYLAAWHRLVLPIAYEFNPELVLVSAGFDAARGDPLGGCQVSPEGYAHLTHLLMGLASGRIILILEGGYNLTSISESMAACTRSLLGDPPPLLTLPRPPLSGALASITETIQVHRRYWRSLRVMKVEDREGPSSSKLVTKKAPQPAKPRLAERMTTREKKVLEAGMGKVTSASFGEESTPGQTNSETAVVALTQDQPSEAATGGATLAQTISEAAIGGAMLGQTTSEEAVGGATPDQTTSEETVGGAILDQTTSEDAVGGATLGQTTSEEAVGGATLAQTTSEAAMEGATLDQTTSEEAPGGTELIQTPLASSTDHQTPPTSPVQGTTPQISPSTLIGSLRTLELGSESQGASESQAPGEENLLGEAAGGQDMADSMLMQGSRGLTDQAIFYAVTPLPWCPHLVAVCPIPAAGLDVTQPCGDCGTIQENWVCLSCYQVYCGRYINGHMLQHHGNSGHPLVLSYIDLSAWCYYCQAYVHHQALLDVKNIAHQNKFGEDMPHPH
test description: HDAC6 enzyme activity inhibition assay (in vitro, fluorimetric)
assay setup: human recombinant HDAC6, fluorimetric kit, same protocol as HDAC1
readout: IC50 (nM)

Here is how some compounds turned out for IC50.
| line notation | IC50 [nM] |
| --- | --- |
| C[C@@H]1CN(C(=O)c2ccc(C(=O)NO)cc2)C[C@H](C)N1Cc1ccccc1 | 990 |
| C[C@@H]1CN(C(=O)c2ccccc2C2=CCOCC2)C[C@H](C)N1Cc1ccc(C(=O)NO)cc1 | 911 |
| CCCN1[C@H](C)CN(Cc2ccc(C(=O)NO)cc2)C[C@@H]1C | 117 |
| C[C@@H]1CN(Cc2ccc(C(=O)NO)cc2)C[C@H](C)N1C(=O)c1cccc(CN2CCCC2)c1 | 46 |

(A) CCN(CC)C[C@@H](C)NCc1cccc(CN2[C@H](C)CN(Cc3ccc(C(=O)NO)cc3)C[C@@H]2C)c1
(B) C[C@@H]1CN(Cc2ccc(C(=O)NO)cc2)C[C@H](C)N1Cc1cccc(-c2ccco2)c1
Out of A and B , name the one with the higher IC50. The response must carry the label of the picked entry.
A

---

target of assay: human recombinant HDAC1 (Homo sapiens)
Sequence (Q13547 whole entry): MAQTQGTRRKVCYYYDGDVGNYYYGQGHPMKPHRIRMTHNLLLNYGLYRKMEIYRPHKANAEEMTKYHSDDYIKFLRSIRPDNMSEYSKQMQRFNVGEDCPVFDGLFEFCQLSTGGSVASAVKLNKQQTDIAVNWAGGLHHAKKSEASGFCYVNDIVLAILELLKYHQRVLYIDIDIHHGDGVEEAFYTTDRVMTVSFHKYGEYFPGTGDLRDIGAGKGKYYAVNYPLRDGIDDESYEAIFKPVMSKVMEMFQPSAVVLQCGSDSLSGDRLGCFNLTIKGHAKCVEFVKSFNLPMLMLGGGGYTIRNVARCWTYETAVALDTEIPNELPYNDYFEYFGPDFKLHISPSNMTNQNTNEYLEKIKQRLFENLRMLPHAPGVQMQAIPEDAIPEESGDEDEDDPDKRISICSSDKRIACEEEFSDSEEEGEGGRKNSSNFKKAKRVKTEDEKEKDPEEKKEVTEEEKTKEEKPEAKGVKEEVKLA
test description: HDAC1 enzyme activity inhibition assay (in vitro, fluorimetric)
assay setup: human recombinant HDAC1, fluorimetric kit, 30° C. 60 minutes
pIC50: −log10 of the molar value.
readout: pIC50

The examples below pair each entry with its known result.
| compound | readout | reported |
| --- | --- | --- |
| CC(CN(C)Cc1ccccc1)NCc1cccc(C(=O)N2[C@H](C)CN(Cc3ccc(C(=O)NO)cc3)C[C@@H]2C)c1 (stereo partly shown) | pIC50 | 5.27 |
| Cc1ccccc1NC(=O)N1[C@H](C)CN(Cc2ccc(C(=O)NO)cc2)C[C@@H]1C | pIC50 | 5.06 |
| C[C@@H]1CN(C(=O)c2cccc(Cl)c2)C[C@H](C)N1Cc1ccc(C(=O)NO)cc1 | pIC50 | 5.08 |
| C[C@@H]1CN(Cc2ccc(C(=O)NO)cc2)C[C@H](C)N1Cc1ccco1 | pIC50 | 4.77 |
| C[C@@H]1CN(Cc2ccc(C(=O)NO)cc2)C[C@H](C)N1Cc1cccc(C2=CCOCC2)c1 | pIC50 | 5.08 |

(a) C[C@@H]1CN(Cc2ccc(C(=O)NO)cc2)C[C@H](C)N1C(=O)c1ccc(-c2ccco2)cc1
(b) C[C@@H]1CN(Cc2ccc(C(=O)NO)cc2)C[C@H](C)N1Cc1ccccc1C1=CCN(CC(F)(F)F)CC1
(c) C[C@@H]1CN(C(=O)c2ccccc2)C[C@H](C)N1Cc1ccc(C(=O)NO)cc1
(d) C[C@@H]1CN(Cc2ccc(C(=O)NO)cc2)C[C@H](C)N1C(=O)Nc1ccccc1
List the 4 entries from lowest pIC50 to highest pIC50 value. Respond with the label ranking, as requested.
b, c, d, a
(b: 4.77, c: 5.18, d: 5.44, a: 5.80)

(a) COc1ccccc1NC(=O)N1C[C@@H](C)N(Cc2ccc(C(=O)NO)cc2)[C@@H](C)C1
(b) C[C@@H]1CN(Cc2ccccc2)C[C@H](C)N1Cc1ccc(C(=O)NO)cn1
Which numeric pIC50 is bigger, that of a or that of b ? Your choice should be expressed through its label.
a
(a: 5.96, b: 4.65)

---

target of assay: human recombinant HDAC6 (Homo sapiens, UniProt Q9UBN7)
test description: HDAC6 enzyme activity inhibition assay (in vitro, fluorimetric)
assay setup: human recombinant HDAC6, fluorimetric kit, same protocol as HDAC1
pIC50: −log10 of the molar value.
readout: pIC50

| compound | target of assay | reported |
| --- | --- | --- |
| C[C@@H]1CN(S(=O)(=O)c2ccccc2)C[C@H](C)N1Cc1ccc(C(=O)NO)cc1 [Compound 105] | human recombinant HDAC6 (Homo sapiens, UniProt Q9UBN7) | 7.22 |

(P) C[C@@H]1CN(Cc2ccc(C(=O)NO)nc2)C[C@H](C)N1Cc1cccc(CN2CCOCC2)c1 [Compound 609]
(Q) Cc1ccc(C(=O)N2[C@H](C)CN(Cc3ccc(C(=O)NO)cc3)C[C@@H]2C)cc1 [Compound 290]
Please compare: P and Q . Report which one has the smaller pIC50 value. Write the label of whichever entry you select.
P

---

target of assay: human recombinant HDAC6 (Homo sapiens)
Construct: purchased Calbiochem 382180
Sequence (Q9UBN7 1-1215): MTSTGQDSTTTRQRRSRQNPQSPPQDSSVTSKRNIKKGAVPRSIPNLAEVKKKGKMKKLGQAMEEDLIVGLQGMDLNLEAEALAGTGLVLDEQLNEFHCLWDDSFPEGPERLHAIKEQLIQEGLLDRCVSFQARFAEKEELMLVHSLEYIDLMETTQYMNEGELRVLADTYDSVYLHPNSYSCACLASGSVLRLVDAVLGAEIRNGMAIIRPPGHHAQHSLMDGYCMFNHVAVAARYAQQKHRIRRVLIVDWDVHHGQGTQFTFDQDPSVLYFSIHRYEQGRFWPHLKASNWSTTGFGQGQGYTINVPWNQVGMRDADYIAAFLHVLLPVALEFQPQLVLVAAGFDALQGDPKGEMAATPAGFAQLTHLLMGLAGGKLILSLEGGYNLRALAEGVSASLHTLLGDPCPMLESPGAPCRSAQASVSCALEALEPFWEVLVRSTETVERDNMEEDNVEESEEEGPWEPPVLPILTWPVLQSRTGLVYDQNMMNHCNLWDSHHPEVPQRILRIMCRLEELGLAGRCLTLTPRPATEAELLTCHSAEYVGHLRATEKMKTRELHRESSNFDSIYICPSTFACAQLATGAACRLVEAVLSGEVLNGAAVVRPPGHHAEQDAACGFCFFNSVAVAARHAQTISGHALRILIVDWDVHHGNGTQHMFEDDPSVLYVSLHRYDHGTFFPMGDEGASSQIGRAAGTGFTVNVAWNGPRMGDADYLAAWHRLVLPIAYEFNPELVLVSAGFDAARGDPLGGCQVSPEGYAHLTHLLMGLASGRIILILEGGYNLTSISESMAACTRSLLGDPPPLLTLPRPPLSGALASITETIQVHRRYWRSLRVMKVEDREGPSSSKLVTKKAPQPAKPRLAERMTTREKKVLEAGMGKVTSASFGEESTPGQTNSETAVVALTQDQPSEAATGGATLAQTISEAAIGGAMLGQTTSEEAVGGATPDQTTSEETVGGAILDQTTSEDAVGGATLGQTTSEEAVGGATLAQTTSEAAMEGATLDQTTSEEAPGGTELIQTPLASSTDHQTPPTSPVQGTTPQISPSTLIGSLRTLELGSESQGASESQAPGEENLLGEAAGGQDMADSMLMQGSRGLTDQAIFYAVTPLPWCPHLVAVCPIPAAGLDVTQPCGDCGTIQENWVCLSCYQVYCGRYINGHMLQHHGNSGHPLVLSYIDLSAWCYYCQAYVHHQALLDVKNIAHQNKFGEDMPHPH
test description: HDAC6 enzyme activity inhibition assay (in vitro, fluorimetric)
Type: biochemical
assay setup: human recombinant HDAC6, fluorimetric kit, same protocol as HDAC1
readout: IC50 (nM)

| line notation | unit of measurement | IC50 |
| --- | --- | --- |
| C[C@@H]1CN(Cc2ccc(/C=C/C(=O)NO)cc2)C[C@H](C)N1C(=O)c1ccco1 | nM | 175 |

(I) C[C@@H]1CN(Cc2ccccc2)C[C@H](C)N1Cc1ccc(C(=O)NO)cc1
(II) C[C@@H]1CN(Cc2ccc(C(=O)NO)cc2)C[C@H](C)N1C(=O)c1cccc(CN2CCCCC2)c1
(III) C[C@@H]1CN(Cc2ccc(C(=O)NO)cc2)C[C@H](C)N1C(=O)c1ccccc1C1=CCC(C)(C)CC1
Arrange the 3 entries by IC50 so the values rise. A ranking is expressed here by listing the labels in the requested order.
II, I, III
(II: 43 nM, I: 144 nM, III: 326 nM)

Ref: patent US10287255B2
